- subjectOfTest: BRD4 Bromodomain 1 (BRD4 BD1) (Homo sapiens, UniProt O60885)
- Construct: 44-168 and BRD4 BD2
- experimentDescription: AlphaScreen binding assay, BRD4 BD1
- experimentalSetup: His-tagged BRD4 BD1 50 nM, biotinylated H4 (1-21) K5/8/12/16 tetra-acetylated peptide 50 nM, compounds listed under IC50 range headings
pIC50: −log10 of the molar value.
metric: pIC50

> print(dat)
                          structurenotation  metric  reportedmeasurement
1  COC(=O)N1c2ccc(-c3cnn(C4CCNCC4)c3)c(Oc3ncc(F)cn3)c2CC[C@@H]1C   pIC50         5.00 to 6.00
2  COC(=O)N1c2ccc(-c3cnn(C4CC4)c3)c(OC(F)(F)C(N)=O)c2CC[C@@H]1C   pIC50         5.00 to 6.00
3  CC(=O)N1c2ccc(-c3cnn(C4CCNCC4)c3)c(Oc3ncccc3C(N)=O)c2CC[C@@H]1C   pIC50         5.00 to 6.00
4  CCCOc1c(-c2cnn(C3CCNCC3)c2)ccc2c1CC[C@H](C)N2C(C)=O   pIC50               > 7.00
5  C/C=C/n1c(Oc2c(-c3cnn(C4CC4)c3)ccc3c2CC[C@H](C)N3C(C)=O)nc2ccccc21   pIC50         5.00 to 6.00

**Q:** Please tell me: pIC50 of CC(=O)N1c2ccc(-c3cnn(CCO)c3)c(Oc3ncc(C4CC4)cn3)c2CC[C@@H]1C , system BRD4 Bromodomain 1 (BRD4 BD1) (Homo sapiens, UniProt O60885)?
**A:** 6.00 to 7.00

**Q:** Please tell me: pIC50 of C[C@H]1CCc2c(ccc(-c3cnn(C4CS(=O)(=O)C4)c3)c2Oc2ccc(F)cc2)N1C(=O)C1CC1 , system BRD4 Bromodomain 1 (BRD4 BD1) (Homo sapiens, UniProt O60885)?
**A:** 6.00 to 7.00

**Q:** Please tell me: pIC50 of CCCOc1c(-c2nc3ccccc3s2)ccc2c1CC[C@H](C)N2C(C)=O , system BRD4 Bromodomain 1 (BRD4 BD1) (Homo sapiens, UniProt O60885)?
**A:** 5.00 to 6.00

* * *

Catalogue of IC50 values
- subjectOfTest: BRD4 Bromodomain 1 (BRD4 BD1) (Homo sapiens, UniProt O60885)
- Construct: 44-168 and BRD4 BD2
- experimentDescription: AlphaScreen binding assay, BRD4 BD1
- experimentalSetup: His-tagged BRD4 BD1 50 nM, biotinylated H4 (1-21) K5/8/12/16 tetra-acetylated peptide 50 nM, compounds listed under IC50 range headings

**Q:** Please tell me: IC50 of COC(=O)N1c2ccc(-c3cnn(CCS(C)(=O)=O)c3)c(OCCN(C)S(C)(=O)=O)c2CC[C@@H]1C , system BRD4 Bromodomain 1 (BRD4 BD1) (Homo sapiens, UniProt O60885)?
**A:** 1000 to 10000 nM

**Q:** Please tell me: IC50 of COC(=O)N1c2ccc(-c3cnn(C4CCN(C)CC4)c3)c(Oc3ccc(F)cc3)c2CC[C@@H]1C , system BRD4 Bromodomain 1 (BRD4 BD1) (Homo sapiens, UniProt O60885)?
**A:** 100 to 1000 nM

**Q:** Please tell me: IC50 of CC(=O)N1c2ccc(-c3cnn(C4CC4)c3)c(OC[C@@H]3CCNC3)c2CC[C@@H]1C , system BRD4 Bromodomain 1 (BRD4 BD1) (Homo sapiens, UniProt O60885)?
**A:** 100 to 1000 nM

**Q:** Please tell me: IC50 of CC(=O)N1c2ccc(-c3cnn(CC(C)(C)O)c3)c(OC[C@H]3CCNC3)c2CC[C@@H]1C , system BRD4 Bromodomain 1 (BRD4 BD1) (Homo sapiens, UniProt O60885)?
**A:** 1000 to 10000 nM

**Q:** Please tell me: IC50 of COC(=O)N1c2ccc(-c3cnn(CC(C)(C)O)c3)c(OCCN(C)S(C)(=O)=O)c2CC[C@@H]1C , system BRD4 Bromodomain 1 (BRD4 BD1) (Homo sapiens, UniProt O60885)?
**A:** 1000 to 10000 nM

**Q:** Please tell me: IC50 of C[C@H]1CCc2c(ccc(-c3cnn(C4CCNCC4)c3)c2Oc2cccc(F)c2)N1C(=O)C1CC1 , system BRD4 Bromodomain 1 (BRD4 BD1) (Homo sapiens, UniProt O60885)?
**A:** 100 to 1000 nM

**Q:** Please tell me: IC50 of C[C@H]1CCc2c(ccc(-n3nccn3)c2OC2CCC2)N1C(=O)C1CC1 , system BRD4 Bromodomain 1 (BRD4 BD1) (Homo sapiens, UniProt O60885)?
**A:** ≥ 10000 nM

**Q:** Please tell me: IC50 of COC(=O)N1c2c(F)cc(-c3cn[nH]c3)c(Oc3ccccc3)c2CC[C@@H]1C , system BRD4 Bromodomain 1 (BRD4 BD1) (Homo sapiens, UniProt O60885)?
**A:** 100 to 1000 nM

* * *

- subjectOfTest: BRD4 Bromodomain 2 (BRD4 BD2) (Homo sapiens, UniProt O60885)
- Construct: 333-460 were cloned, expressed, and purified to homogeneity
- experimentDescription: AlphaScreen binding assay, BRD4 BD2
- experimentalSetup: His-tagged BRD4 BD2 100 nM, biotinylated H4 (1-21) K5/8/12/16 tetra-acetylated peptide 100 nM, compounds listed under IC50 range headings
Catalogue of IC50 values

> print(dat)
                                   molecule  reportedmeasurement
1  CC(=O)N1c2ccc(-c3cnn(CCS(C)(=O)=O)c3)c(OCC3CCCC3)c2CC[C@@H]1C [I-424]              < 50 nM

**Q:** What IC50 value was documented for this molecule, CCCOc1c(-c2cccc(C(=O)N3CCOCC3)c2)ccc2c1CC[C@H](C)N2C(C)=O [I-488] ?
**A:** 50 to 500 nM

**Q:** What IC50 value was documented for this molecule, CC(=O)N1c2ccc(-c3cnn(CCO)c3)c(OC[C@H]3CCC(=O)N3)c2CC[C@@H]1C [I-434] ?
**A:** 50 to 500 nM

**Q:** What IC50 value was documented for this molecule, COC(=O)N1c2ccc(-c3cnn(C4CC4)c3)c(OC(CF)CF)c2CC[C@@H]1C [I-15] ?
**A:** 50 to 500 nM

**Q:** What IC50 value was documented for this molecule, COC(=O)N1c2ccc(-c3cnn(CCO)c3)c(Oc3ncc(F)cn3)c2CC[C@@H]1C [I-576] ?
**A:** ≥ 500 nM

**Q:** What IC50 value was documented for this molecule, COC(=O)N1c2ccc(-c3cnn(C4CCN(C)C4)c3)c(Oc3ccc(F)cc3)c2CC[C@@H]1C (some centres unmarked) [I-249] ?
**A:** < 50 nM

* * *

- subjectOfTest: BRD4 Bromodomain 1 (BRD4 BD1) (Homo sapiens)
- Construct: 44-168 and BRD4 BD2
- experimentDescription: AlphaScreen binding assay, BRD4 BD1
- experimentalSetup: His-tagged BRD4 BD1 50 nM, biotinylated H4 (1-21) K5/8/12/16 tetra-acetylated peptide 50 nM, compounds listed under IC50 range headings
metric: IC50

> print(dat)
                                   compound                             subjectoftest  reportedmeasurement
1  COC(=O)N1c2ccc(-c3cnn(C4CCNCC4)c3)c(Oc3ccccc3C#N)c2CC[C@@H]1C [I-137]  BRD4 Bromodomain 1 (BRD4 BD1) (Homo sapiens)       100 to 1000 nM
2  CCS(=O)(=O)c1ccc(-c2ccc3c(c2OCC(=O)N(C)C)CC[C@H](C)N3C(C)=O)cc1 [I-485]  BRD4 Bromodomain 1 (BRD4 BD1) (Homo sapiens)     1000 to 10000 nM
3  CC(=O)N1c2ccc(-c3cnn(C4CC4)c3)c(OCC(=O)N3CCOCC3)c2CC[C@@H]1C [I-43]  BRD4 Bromodomain 1 (BRD4 BD1) (Homo sapiens)       100 to 1000 nM
4  CC(=O)N1c2ccc(-c3cnn(CCO)c3)c(OCC3CCCC3)c2CC[C@@H]1C [I-426]  BRD4 Bromodomain 1 (BRD4 BD1) (Homo sapiens)             < 100 nM
5  CC(=O)N1c2ccc(-c3cnn(CCO)c3)c(Oc3ncc(F)cn3)c2CC[C@@H]1C [I-543]  BRD4 Bromodomain 1 (BRD4 BD1) (Homo sapiens)       100 to 1000 nM
6  COC(=O)N1c2ccc(-c3cnn(CC(C)(C)O)c3)c(Oc3ncc(F)cn3)c2CC[C@@H]1C [I-575]  BRD4 Bromodomain 1 (BRD4 BD1) (Homo sapiens)     1000 to 10000 nM

**Q:** What IC50 value was documented for this compound, CC(=O)N1c2ccc(-c3cnn(C4CC4)c3)c(Oc3ccc(C#N)nn3)c2CC[C@@H]1C [I-91] ?
**A:** 100 to 1000 nM

**Q:** What IC50 value was documented for this compound, COC(=O)N1c2ccc(-c3csc(C4CNC4)n3)c(OC3CCC3)c2CC[C@@H]1C [I-313] ?
**A:** 100 to 1000 nM
